Answer each item with its documented yeast fitness.
B1: tRNA (parent)
chain: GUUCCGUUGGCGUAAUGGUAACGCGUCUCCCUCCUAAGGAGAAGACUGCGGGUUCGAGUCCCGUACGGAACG

Variants of: B1
Assay: yeast fitness relative to wild type (ratio to wild type); higher = fitter; tRNA-Arg(CCU), competitive growth, 37 C, YPD
Variants at the floor of the assay were thinned out.
Answers are plain numbers.

Example cases with answers are listed next.
Variant String | Number
C27U G52A | 0.7
U2A C5A G12A | 0.526
G44C A65U | 0.873
C29A C46U C55A | 0.572
C4A C31G A40U A65U G68C | 0.595
U8A C31G A57C C61U | 0.506
C27A G68C | 0.893
A40C C46U A65G G68C | 0.59

Would you mind giving yeast fitness for every variant in the list below?
1. C31G C61G
2. C29G A43C C55G
3. C27A G52C

**Result**
1: 0.623; 2: 0.657; 3: 0.562
